Origin of values: the NIST ThermoML archive (doi:10.1021/je500237g)

settings: 293.15 K; 101.33 kPa; Liquid; Vibrating tube method
± gives the expanded uncertainty stated by the source.
Reported property: mass density

Below, each entry is followed by its recorded mass density result.
Smiles data	Reported property	Result
CCCCO	mass density	810.4 ± 0.8 kg/m3
CCCCCCCCCCCC	mass density	750 ± 0.8 kg/m3
CC(C)CO	mass density	802.7 ± 0.8 kg/m3

Field: next compound
mass density for CCCO is 804.9 ± 0.8 kg/m3

---

test: refractive index (Na D-line) (dimensionless); conditions: 293.15 K; 101.33 kPa; Liquid; Standard Abbe refractometry
Reported property: refractive index
Reply briefly: the number, and no unit.

Smiles data	Numeric readout
CCCCO	1.3992
CCCO	1.3851

refractive index for CC(C)CO is 1.3954

refractive index for CCCCCCCCCCCC is 1.4218
